Experiment: Absorption and fluorescence (photophysical properties) in solvent and solid state
Assay type: physicochemical
Conditions: Solid; integrating sphere
observation_type: Φ (fluorescence quantum yield)
Give bare numbers.

Field: example entries. Status: answers known.
cpd_smiles	numeric_value
COc1c(/C=C(\C#N)c2ccc(Br)cc2)ccc2cc(N(C)C)ccc12	0.126
COc1c(/C=C(\C#N)c2ccc(-c3ccncc3)cc2)ccc2cc(N(C)C)ccc12	0.217
COc1c(/C=C(\C#N)c2ccc(-c3ccccc3)cc2)ccc2cc(N(C)C)ccc12	0.268

Moving on to the next compound.
Value of Φ (fluorescence quantum yield) reported for the compound `COc1c(/C=C(\C#N)c2cc(C(F)(F)F)cc(C(F)(F)F)c2)ccc2cc(N(C)C)ccc12` is 0.292

====

Test: Absorption and fluorescence (photophysical properties) in solvent and solid state
Format: physicochemical
Settings: THF or CH3CN (CH3CN for NAP-Py^+); integrating sphere
Assignment: determine reported Φ (fluorescence quantum yield) for the given compounds.
Give bare numbers.

compound	Φ (fluorescence quantum yield)
COc1c(/C=C(\C#N)c2ccc(-c3ccncc3)cc2)ccc2cc(N(C)C)ccc12 [NAP-Py]	0.015

Could you report Φ (fluorescence quantum yield) for every entry in the following list?
1. COc1c(/C=C(\C#N)c2ccc(Br)cc2)ccc2cc(N(C)C)ccc12 [NAP-Br]
2. COc1c(/C=C(\C#N)c2cc(C(F)(F)F)cc(C(F)(F)F)c2)ccc2cc(N(C)C)ccc12 [NAP-CF3]
3. COc1c(/C=C(\C#N)c2ccc(-c3ccccc3)cc2)ccc2cc(N(C)C)ccc12 [NAP-Ph]

## Output
1: 0.014; 2: 0.016; 3: 0.018

====

Assignment: determine reported λem max for the given compounds.
Assay: Absorption and fluorescence (photophysical properties) in solvent and solid state
Format: physicochemical
Details: Solid
Numbers only, in nm.

Field: example entries. Status: answers known.
cpd_smiles	numeric_value
COc1c(/C=C(\C#N)c2ccc(Br)cc2)ccc2cc(N(C)C)ccc12	597
COc1c(/C=C(\C#N)c2ccc(-c3ccncc3)cc2)ccc2cc(N(C)C)ccc12	619
COc1c(/C=C(\C#N)c2ccc(-c3ccccc3)cc2)ccc2cc(N(C)C)ccc12	566

Moving on to the next compound.
Value of λem max reported for the compound `COc1c(/C=C(\C#N)c2cc(C(F)(F)F)cc(C(F)(F)F)c2)ccc2cc(N(C)C)ccc12` is 555

====

Assay: Absorption and fluorescence (photophysical properties) in solvent and solid state
Type: physicochemical
Conditions: THF or CH3CN (CH3CN for NAP-Py^+)
Assignment: determine reported τ (fluorescence lifetime) for the given compounds.

Field: example entries. Status: answers known.
cpd_smiles	result
COc1c(/C=C(\C#N)c2ccc(-c3ccccc3)cc2)ccc2cc(N(C)C)ccc12	<0.34 ns
COc1c(/C=C(\C#N)c2cc(C(F)(F)F)cc(C(F)(F)F)c2)ccc2cc(N(C)C)ccc12	<0.67 ns
COc1c(/C=C(\C#N)c2ccc(Br)cc2)ccc2cc(N(C)C)ccc12	<0.60 ns

Moving on to the next compound.
Value of τ (fluorescence lifetime) reported for the compound `COc1c(/C=C(\C#N)c2ccc(-c3ccncc3)cc2)ccc2cc(N(C)C)ccc12` is <0.67 ns

====

Tested on: HeLa cells
Assay: Photostability under continuous confocal laser irradiation
Assay type: cell-based
Details: continuous irradiation for 10 min; NAP AIEgens 405 nm, Nile Red 543 nm, power 12%
observation_type: Fluorescence intensity change under irradiation

cpd_smiles	assayed_target	result
COc1c(/C=C(\C#N)c2ccc(Br)cc2)ccc2cc(N(C)C)ccc12	HeLa cells	dropped to some extent
COc1c(/C=C(\C#N)c2ccc(-c3ccncc3)cc2)ccc2cc(N(C)C)ccc12	HeLa cells	dropped to some extent
COc1c(/C=C(\C#N)c2ccc(-c3ccccc3)cc2)ccc2cc(N(C)C)ccc12	HeLa cells	dropped to some extent
